Tested on: COLO357
Assay: Cytotoxic activity in human Colo-357 cells assessed as reduction in cell viability incubated for 72 hrs by MTT assay
Type: functional, cell-based
Conditions: COLO357, 72 h
Quantity name: pIC50
pIC50 (log units): -log10 of the concentration in mol/L.

Entry COc1cc2c(c(OC)c1OC)-c1ccc(OC)c(=O)cc1[C@@H](NC(C)=O)CC2 ; pIC50 = 8.89

----------
System: MIA PaCa-2
Test: Cytotoxic activity in human MIAPaCa2 cells assessed as reduction in cell viability incubated for 72 hrs by MTT assay
Type: functional, cell-based
Conditions: MIA PaCa-2, 72 h
Quantity name: IC50 (nM)
Answer in nM, number only, no unit symbol.

Input COc1cc2c(c(OC)c1OC)-c1ccc(OC)c(=O)cc1[C@@H](NC(C)=O)CC2 . Output IC50: 1.3
